Endpoint: IC50. System: catalytic domain of MMP-3 enzyme (Homo sapiens, UniProt P08254). Items follow.
Sequence (P08254 100-272 limits assumed): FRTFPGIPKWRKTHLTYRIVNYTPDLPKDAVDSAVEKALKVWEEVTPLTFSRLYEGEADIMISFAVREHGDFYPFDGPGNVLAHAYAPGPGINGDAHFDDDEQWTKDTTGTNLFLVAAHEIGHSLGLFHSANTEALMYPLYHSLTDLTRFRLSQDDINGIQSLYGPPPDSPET

Worked cases, answers included:
CCCCN(CC)C(=O)c1c[nH]c2c(C(=O)NCc3ccc4c(c3)NC(=O)CO4)ncnc12 | 0.003 to 0.1 µM
CCC(CC)NC(=O)c1c[nH]c2c(C(=O)NCc3ccc4c(c3)NC(=O)CO4)ncnc12 | 0.101 to 20 µM
COc1cccc(CNC(=O)c2c[nH]c3c(C(=O)NCc4ccc5c(c4)NC(=O)CO5)ncnc23)c1 | 0.101 to 20 µM
CNC(=O)c1c[nH]c2c(C(=O)NCc3ccc4c(c3)NC(=O)CO4)ncnc12 | 0.101 to 20 µM
O=C1COc2ccc(CNC(=O)c3ncnc4c(C(=O)N5CCC(O)CC5)c[nH]c34)cc2N1 | 0.101 to 20 µM

Provide IC50 values for the following items, in order.
1. CC(C)(CO)NC(=O)c1c[nH]c2c(C(=O)NCc3ccc4c(c3)NC(=O)CO4)ncnc12
2. C[C@@H](NC(=O)c1c[nH]c2c(C(=O)NCc3ccc4c(c3)NC(=O)CO4)ncnc12)c1ccccc1
3. CCCN(CCC)C(=O)c1c[nH]c2c(C(=O)NCc3ccc4c(c3)NC(=O)CO4)ncnc12

1. 0.003 to 0.1 µM
2. 0.101 to 20 µM
3. 0.003 to 0.1 µM
